# measured-target: recombinant thioesterase domain of fatty acid synthase (FAS TE) (Homo sapiens, UniProt P49327)
# Construct: Expression of the recombinant thioesterase domain of FAS was performed as described previously
# Sequence (P49327 2207-2511 limits assumed): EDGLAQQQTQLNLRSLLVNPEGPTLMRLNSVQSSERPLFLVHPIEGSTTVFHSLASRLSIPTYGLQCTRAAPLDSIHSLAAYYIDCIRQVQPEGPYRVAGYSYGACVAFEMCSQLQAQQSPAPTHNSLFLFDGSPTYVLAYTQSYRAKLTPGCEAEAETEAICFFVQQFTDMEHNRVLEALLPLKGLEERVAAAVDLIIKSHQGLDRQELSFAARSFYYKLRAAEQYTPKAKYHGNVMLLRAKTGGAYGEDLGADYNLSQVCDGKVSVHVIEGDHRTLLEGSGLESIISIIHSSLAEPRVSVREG
# assay: Fluorogenic assay (4-MUH substrate) for inhibition of recombinant FAS thioesterase domain
# Format: biochemical
# run-parameters: recombinant FAS TE, 4-MUH substrate, 30 min pre-incubation at 37 deg.C; read-out: apparent Ki
measure-name: Ki (µM)

Example entries and their recorded answers appear below.
{"molecule": "O=C1O[C@H](CCc2ccccc2)[C@@H]1Cc1ccccc1", "numeric-value": 2.5}
{"molecule": "CCCCC[C@@H]1OC(=O)[C@]1(C)CCCC", "numeric-value": 14.6}
{"molecule": "CCCCC[C@H]1OC(=O)[C@@H]1CCCC [trans-3a, (3R,4R)-3-butyl-4-pentyloxetan-2-one]", "numeric-value": 4.01}

1: O=C1O[C@H](CCC2CCCC2)[C@@H]1CC1CCCC1
2: O=C1O/C(=C\Cc2ccccc2)[C@@H]1Cc1ccccc1
3: O=C1O[C@H](CCC2CCCCC2)[C@@H]1CC1CCCCC1
Rank order required: Ki, descending. Note for the reader: the ranking is given by listing the labels in the order requested.
1, 3, 2
(1: 13.5 µM, 3: 7.7 µM, 2: 5.04 µM)

---

# measured-target: recombinant thioesterase domain of fatty acid synthase (FAS TE) (Homo sapiens, UniProt P49327)
# Construct: Expression of the recombinant thioesterase domain of FAS was performed as described previously
# assay: Fluorogenic assay (4-MUH substrate) for inhibition of recombinant FAS thioesterase domain
# Assay type: biochemical
# Excerpt: The synthetic fluorogenic substrate, 4-methylumbelliferyl heptanoate (4-MUH), was purchased from Sigma (St. Louis, Mo.). […] Results are the average of triplicate time points.
measure-name: pKi
The value called pKi is obtained by taking minus log10 of the concentration in mol/L.

For this compound ( O=C1O[C@H](CCc2ccccc2)[C@H]1Cc1ccccc1 [trans-3d] ), measured pKi is 5.48

---

# measured-target: recombinant thioesterase domain of fatty acid synthase (FAS TE) (Homo sapiens)
# Construct: Expression of the recombinant thioesterase domain of FAS was performed as described previously
# assay: Fluorogenic assay (4-MUH substrate) for inhibition of recombinant FAS thioesterase domain
# Type: biochemical
# run-parameters: recombinant FAS TE, 4-MUH substrate, 30 min pre-incubation at 37 deg.C; read-out: apparent Ki
pKi: −log10 of the molar value.
measure-name: pKi

{"molecule": "CCCCC[C@@H]1OC(=O)[C@@H]1CCCC (stereo in doubt)", "measure-name": "pKi", "numeric-value": 4.64}
{"molecule": "CCCCC[C@@H]1OC(=O)[C@@]1(CCCC)Cc1ccccc1", "measure-name": "pKi", "numeric-value": 4.72}
